These measurements were taken from patent US20230407373A1.

System: HCoV-OC43 gRNA and sgRNA
Assay type: binding
experimental.parameters: type n_48_v; 48 hpi; OC43 Probe II capture on infected cells
parameter: target (unweighted spectral count, OC43 Probe II)
One number for each entry.

Reported target (unweighted spectral count, OC43 Probe II) for HNRNPA1 (protein, UniProt P09651 1-372, looked up) Heterogeneous nuclear …: MSKSESPKEPEQLRKLFIGGLSFETTDESLRSHFEQWGTLTDCVVMRDPNTKRSRGFGFVTYATVEEVDAAMNARPHKVDGRVVEPKRAVSREDSQRPGAHLTVKKIFVGGIKEDTEEHHLRDYFEQYGKIEVIEIMTDRGSGKKRGFAFVTFDDHDSVDKIVIQKYHTVNGHNCEVRKALSKQEMASASSSQRGRSGSGNFGGGRGGGFGGNDNFGRGGNFSGRGGFGGSRGGGGYGGSGDGYNGFGNDGGYGGGGPGYSGGSRGYGSGGQGYGNQGSGYGGSGSYDSYNNGGGGGFGGGSGSNFGGGGSYNDFGNYNNQSSNFGPMKGGNFGGRSSGPYGGGGQYFAKPRNQGGYGGSSSSSSYGSGRRF : what is it? 53
